# Tested on: M. tuberculosis H37Rv strain
# assayProcedure: microbe, parasite or virus in culture
# Format: cell-based
# statedConditions: Mycobacterium tuberculosis, concentration inhibiting 90% of bacterial population, read-out: MIC90 H37Rv
measuredQuantity: MIC (µM)

• CCn1cc(C(=O)NCCNCCO)c(=O)c2cc(/C(C)=N/NC(N)=S)ccc21 [Compound 12] = 73.4
• COCCNC(=O)c1cn(Cc2ccccc2)c2ccc(/C(C)=N/NC(N)=S)cc2c1=O [Compound 17] = 44.2
• C/C(=N\NC(N)=S)c1ccc2c(c1)c(=O)c(C(=O)NCCNCCO)cn2Cc1ccc(Cl)cc1Cl [Compound 16] = 4.8
